Study Target: Heat shock factor protein 1 (Mus musculus)
Sequence (P38532 whole entry): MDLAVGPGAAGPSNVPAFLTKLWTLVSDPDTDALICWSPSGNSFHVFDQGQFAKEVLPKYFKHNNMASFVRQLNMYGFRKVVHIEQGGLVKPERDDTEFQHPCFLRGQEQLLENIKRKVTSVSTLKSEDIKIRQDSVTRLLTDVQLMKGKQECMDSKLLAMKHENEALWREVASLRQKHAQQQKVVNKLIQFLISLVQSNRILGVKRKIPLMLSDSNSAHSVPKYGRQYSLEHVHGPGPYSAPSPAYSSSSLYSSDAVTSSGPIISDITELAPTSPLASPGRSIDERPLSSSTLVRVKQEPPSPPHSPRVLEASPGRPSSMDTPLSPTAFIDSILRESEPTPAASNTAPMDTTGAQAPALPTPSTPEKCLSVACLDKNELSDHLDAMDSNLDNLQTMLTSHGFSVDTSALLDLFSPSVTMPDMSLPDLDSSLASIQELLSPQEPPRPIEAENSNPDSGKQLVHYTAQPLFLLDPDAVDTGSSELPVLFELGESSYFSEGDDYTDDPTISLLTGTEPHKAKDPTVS
Test Protocol: inhibition of MG132-induced HSE-luciferase signal, confirmation, cell-based, NIH3T3, luminescence, dose retest (AID 2382);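 also: NIH3T3 fibroblasts with HSF1-driven luciferase reporter stressed by proteasome inhibitor MG132; luminescence from HSF1-driven luciferase expression after 8 hours of MG132 stress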
Type: functional
The source made the active and inactive calls. Rule as the data show it: actives have a measured EC50 and inactives only a lower limit.
Measurement Label: EC50

Look over these answered cases.
[[record]]
molecule = "O=C(O)C1C2C=CC(O2)C1C(=O)Nc1ccc2c(c1)OCCO2 (configuration not stated)"
result = "25.9 µM (active)"

[[record]]
molecule = "CC12CCC3C(CC=C4CC5(CCC43C)OCCO5)C1CCC2=O (configuration not stated)"
result = "> 195 µM (not active)"

[[record]]
molecule = "O=C1CCC2S/C(=C/Nc3ccc(C(F)(F)F)cc3)C(=O)N12 (configuration not stated)"
result = "2.44 µM (active)"

[[record]]
molecule = "Cc1ccc(OCC(=O)Nc2cnc(O)nc2O)cc1C"
result = "> 195 µM (not active)"

[[record]]
molecule = "O=C1Nc2ccccc2/C1=C/C(=O)c1cccs1"
result = "> 195 µM (not active)"

[[record]]
molecule = "CCOC(=O)N1CCN(CC(O)COC2CC(C)CC(C)(C)C2)CC1 (configuration not stated)"
result = "> 195 µM (not active)"

[[record]]
molecule = "O=C(O)c1ccc(NC2=C(Cl)C(=O)c3ccccc3C2=O)cc1"
result = "6.24 µM (active)"

[[record]]
molecule = "O=S(=O)(Nc1cccc(Oc2cnccn2)c1)c1ccc(F)cc1"
result = "> 195 µM (not active)"


Per the record, CC(C)Oc1ccc(OCCSc2nc3ccccc3n2CC(=O)O)cc1 has EC50 of > 195 µM (not active)

Per the record, Cc1c(C2=CCN(S(=O)(=O)c3ccc(Br)cc3)CC2)c2ccccc2n1C has EC50 of > 195 µM (not active)

Per the record, CN(C(=O)COC(=O)c1nc(Cl)c(Cl)c(Cl)c1Cl)C1CCS(=O)(=O)C1 (configuration not stated) has EC50 of 13.1 µM (active)

Per the record, COC(=O)CCS(=O)(=O)c1nc(-c2ccccc2)cc(C(F)(F)F)n1 has EC50 of 9.59 µM (inconclusive)

Per the record, Cc1cc(Nc2ccc3c(c2)OCCO3)c2cc(Cl)ccc2n1 has EC50 of 17.2 µM (active)

Per the record, CCOc1ccc(C(=O)COC(=O)Cc2nnc(O)c3ccccc23)cc1 has EC50 of > 195 µM (not active)

Per the record, CCOC(=O)c1cc2nc(-c3ccco3)cc(C(F)(F)F)n2n1 has EC50 of > 195 µM (not active)

Per the record, CC(C)CCNC(=O)c1ccc2c(SCC(=O)O)c3c(nc2c1)CCC3 has EC50 of > 195 µM (not active)

Per the record, CCOCCn1c(SCC(=O)OCc2ccccc2)nc2c1c(=O)[nH]c(=O)n2C has EC50 of > 195 µM (not active)

Per the record, Cc1ccc(-n2c(=O)cc(N3CCN(Cc4ccccc4)CC3)[nH]c2=O)cc1 has EC50 of > 195 µM (not active)

Per the record, Cc1nc(C)c(-c2nnc(-c3cccc(S(=O)(=O)N(C)C)c3)o2)cc1C(=O)NN has EC50 of > 195 µM (not active)

Per the record, CN(C)c1ccc(-c2noc(C3CCN(C(=O)Nc4ccc(Cl)cc4)CC3)n2)cc1 has EC50 of > 195 µM (not active)

Per the record, O=C(c1ccccc1)N1CCN(CC2CC=CCC2)CC1 (configuration not stated) has EC50 of > 195 µM (not active)

Per the record, CCc1cccc2c(C(=O)COC(=O)c3ccc([N+](=O)[O-])s3)c[nH]c12 has EC50 of 7.75 µM (active)

Per the record, CN(C)c1ccc(/C=C2\SC(=O)N(CCc3nnc(N)s3)C2=O)cc1 has EC50 of 6.52 µM (inconclusive)

Per the record, CCN(CC)c1ncnc2ccc(Br)cc12 has EC50 of 13.8 µM (active)

Per the record, Cc1ccc(C(C)C)c(OCc2ccc(C(=O)N/N=C/c3cccc(O)c3O)cc2)c1 has EC50 of 1.24 µM (active)

Per the record, COc1ccccc1CN1CCCC(CN(CCN(C)C)C(=O)C2CCCC2)C1 (configuration not stated) has EC50 of > 195 µM (not active)

Per the record, O=C(Cn1nc2ccccc2n1)N/N=C/c1cc([N+](=O)[O-])ccc1O has EC50 of 0.691 µM (active)
